# Test system: HeLa
# assay details: Proliferation assay (crystal violet), HeLa
# Assay type: cell-based
# condition notes: Homo sapiens, 96 h, 4 days, read-out: Inhibition of proliferation IC50 HeLa
reported property: log10 of IC50 (log10 of the value in µM)
Remember, log10 of IC50, in µM.

COc1ccc(NC(=O)c2c(C)nsc2Nc2nc3c(C(F)(F)F)cccc3s2)cc1F has a reported log10 of IC50 of -0.43

CCc1ccccc1NC(=O)c1c(C)nsc1Nc1ncnc2ccccc12 has a reported log10 of IC50 of 0.86

Cc1cncc(Nc2snc(C)c2C(=O)Nc2ccc(F)c(F)c2)n1 has a reported log10 of IC50 of 0.85

CCNC(=O)c1csc(Nc2snc(C)c2C(=O)Nc2ccc(F)c(F)c2)n1 has a reported log10 of IC50 of 0.52

COc1ccc(NC(=O)c2c(C)nsc2Nc2nc3cccnc3s2)cn1 has a reported log10 of IC50 of 0.56

Cc1nsc(Nc2cc(C#N)ccn2)c1C(=O)Nc1ccc(OC2CCCCC2)nc1 has a reported log10 of IC50 of 0.23

COc1ccc(NC(=O)c2c(C)nsc2Nc2cnc3ccccc3n2)cn1 has a reported log10 of IC50 of 1.00

CCOC(=O)c1sc(Nc2snc(C)c2C(=O)Nc2ccc(OC)nc2)nc1C has a reported log10 of IC50 of 0.20

CCc1ccccc1NC(=O)c1c(C)nsc1Nc1cnc2ccccc2n1 has a reported log10 of IC50 of 0.40

Cc1nsc(Nc2cnc3ccccc3n2)c1C(=O)Nc1ccc(Oc2ccccc2)nc1 has a reported log10 of IC50 of 0.30

CCc1ccccc1NC(=O)c1c(C)nsc1Nc1cnc2cc(F)ccc2n1 has a reported log10 of IC50 of 0.04

Cc1nsc(Nc2cnc3cc(C(F)(F)F)ccc3n2)c1C(=O)Nc1ccc(F)c(F)c1 has a reported log10 of IC50 of -0.14

Cc1nsc(Nc2ncc(C(=O)N(C)C)s2)c1C(=O)Nc1ccc(F)c(F)c1 has a reported log10 of IC50 of 0.64

COc1ccc(NC(=O)c2c(C)nsc2Nc2nc3ccc(C)cc3s2)cn1 has a reported log10 of IC50 of 1.00

CCOC(=O)c1coc(Nc2snc(C)c2C(=O)Nc2ccc(F)c(F)c2)n1 has a reported log10 of IC50 of 1.00

COC(=O)c1cncc(Nc2snc(C)c2C(=O)Nc2ccc(OC)nc2)n1 has a reported log10 of IC50 of 0.86

Cc1nsc(Nc2ccc(C(F)(F)F)nn2)c1C(=O)Nc1ccc(F)c(F)c1 has a reported log10 of IC50 of -0.04
